- ASSAYED_SYSTEM: Ubiquitin carboxyl-terminal hydrolase 1 (Homo sapiens)
- ASSAY: Inhibitors of USP1/UAF1: Pilot qHTS (AID 504865);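 further: rhodamine fluorescence freed from ubiquitin-rhodamine substrate followed over time; top concentration of the series differs between compounds; nearly all actives have a fitted effect of over 35% in size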
- TEST_CONDITIONS: purified USP1/UAF1, Ub-rhodamine cleavage fluorescence; series mostly up to 114 µM
- Description: Deubiquitinating enzymes (DUBs) are a class of enzymes that can cleave isopeptide bond formed between the C-terminal carboxylate of ubiquitin and a lysine side-chain amino group on the target protein. Among them, ubiquitin specific proteases (USPs) constitute the largest DUB family. […]
Records with an inconclusive call do not appear. Active and inactive are the calls of the source. The call rests on the fitted dose curve; in most records, active means well fitted inhibition curve with a large enough effect; inconclusive means small, poorly fitted or top-dose-only effect; inactive means flat fitted curve, though single readings scatter.
MEASURED_ATTRIBUTE: outcome

For orientation, consider the following solved cases.
1) C[C@@H](CN1CCC(Cc2ccccc2)CC1)[C@@H](O)c1ccc(O)cc1
inactive
2) Cc1cc(NC(=O)Nc2ccc3c(ccn3C)c2)sn1
inactive
3) CC(COc1ccc(/C=C/c2ccccc2)cc1)[N+](C)(C)C (configuration not stated)
inactive
4) O=C(/C=C/c1ccccc1)NCCO
inactive
5) CCc1c(C(=O)NCCc2ccc(N3CCCCC3)cc2)[nH]c2ccc(Cl)cc12
inactive
6) O=C(O)[C@@H]1C[C@@H](C(=O)O)N1
inactive

We next turn to a different compound, shown below.
What value of measured outcome is listed for "O=C(O)c1cc(=O)c2ccccc2[nH]1" ?
inactive

* * *

- ASSAY: Cell Viability - LYMP2-018 (AID 985);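 further: compound exposure lasted 24 hr at 37 °C; plate controls were DMSO only for no effect and tetraoctylammonium bromide at 92 µM for full effect; nearly all actives have a fitted effect of over 50% in size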
- TEST_CONDITIONS: LYMP2-018 lymphoblastoid cells, viability (qHTS); series mostly up to 92.2 µM
Inconclusive results are not listed. Calls of active or inactive are those of the source. Calls follow the shape of the dose curve; as a rule, active = well fitted cell-killing curve with a large enough effect; inconclusive = small, poorly fitted or top-dose-only effect; inactive = flat fitted curve, though single readings scatter.
Hello, when you answer, please use one of the following outcomes: 1 (yes) for active, 0 (no) for inactive

Recorded test call requested for "Nc1ccc([N+](=O)[O-])cc1O"
0 (no)

* * *

- ASSAYED_SYSTEM: Hexokinase-4 (Homo sapiens) + Glucokinase regulatory protein (Homo sapiens) (UniProt P35557+Q14397)
- Sequence (P35557 whole entry, looked up): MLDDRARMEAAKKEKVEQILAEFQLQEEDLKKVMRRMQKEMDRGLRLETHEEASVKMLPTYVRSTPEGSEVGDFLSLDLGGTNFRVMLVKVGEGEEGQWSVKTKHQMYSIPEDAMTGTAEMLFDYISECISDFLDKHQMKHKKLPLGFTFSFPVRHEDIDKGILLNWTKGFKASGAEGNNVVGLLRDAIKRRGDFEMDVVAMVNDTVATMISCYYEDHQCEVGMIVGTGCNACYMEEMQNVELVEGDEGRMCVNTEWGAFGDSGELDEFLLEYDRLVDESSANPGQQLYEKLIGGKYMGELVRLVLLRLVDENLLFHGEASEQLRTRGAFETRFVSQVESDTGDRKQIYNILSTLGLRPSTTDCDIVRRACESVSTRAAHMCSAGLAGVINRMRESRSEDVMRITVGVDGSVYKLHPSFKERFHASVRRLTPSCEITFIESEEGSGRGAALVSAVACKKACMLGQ
- Sequence (Q14397 whole entry, looked up): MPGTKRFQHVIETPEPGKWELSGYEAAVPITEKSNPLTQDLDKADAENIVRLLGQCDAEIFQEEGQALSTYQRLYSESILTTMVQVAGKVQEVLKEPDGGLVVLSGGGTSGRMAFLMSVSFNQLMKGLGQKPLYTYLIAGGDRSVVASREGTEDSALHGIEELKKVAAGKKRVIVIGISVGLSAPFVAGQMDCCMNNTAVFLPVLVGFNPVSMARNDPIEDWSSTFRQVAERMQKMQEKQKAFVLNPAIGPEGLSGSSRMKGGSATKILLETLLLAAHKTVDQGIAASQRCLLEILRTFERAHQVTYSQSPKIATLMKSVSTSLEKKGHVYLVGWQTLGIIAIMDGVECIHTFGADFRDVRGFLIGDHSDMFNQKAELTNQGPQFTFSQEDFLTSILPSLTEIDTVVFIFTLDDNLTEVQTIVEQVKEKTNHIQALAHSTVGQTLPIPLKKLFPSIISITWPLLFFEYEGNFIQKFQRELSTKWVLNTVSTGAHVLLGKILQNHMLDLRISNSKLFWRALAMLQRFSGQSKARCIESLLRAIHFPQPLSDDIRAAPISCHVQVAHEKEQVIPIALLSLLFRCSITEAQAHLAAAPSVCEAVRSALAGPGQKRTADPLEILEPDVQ
- ASSAY: qHTS assay for inhibitors of recombinant human GCK-GKRP interaction: Diaphorase-coupled assay (AID 743205)
- TEST_CONDITIONS: G6PDH/diaphorase resorufin fluorescence; series mostly up to 57.5 µM
Calls of active or inactive are those of the source. Calls come from the whole dose curve; as a rule, active = well fitted curve in the direction sought with a large enough effect; inconclusive = small, poorly fitted or top-dose-only effect, or another doubt; inactive = no such curve, though single readings can be large or run the other way.
MEASURED_ATTRIBUTE: outcome

For orientation, consider the following solved cases.
1. Fc1cccc(/C=N/N=C/c2cccc(F)c2)c1
inactive
2. N.N.O=C(O)C1(C(=O)O)CCC1.[Pt]
inactive
3. O=C(/C=C/c1ccc(O)cc1)c1ccc(O)cc1O
inactive
4. CN1C2CCC1CC(OC(=O)C(O)c1ccccc1)C2 (stereo unspecified)
inactive

We next turn to a different compound, shown below.
What value of measured outcome is listed for "C=C[C@@H]1CN2CC[C@@H]1C[C@H]2[C@H](O)c1ccnc2ccc(OC)cc12" ?
inactive

* * *

- ASSAY: qHTS of pediatric cancer cell lines to identify multiple opportunities for drug repurposing: Primary screen for LAN-5 cells (AID 1347100)
- TEST_CONDITIONS: LAN-5 neuroblastoma viability, CellTiter-Glo luminescence, 48 h; series mostly up to 46 µM
- Protocol: Drug repurposing or repositioning has been offered as a strategy for drug development in oncology programs. […] [1] Shen, M et al. Quantitative high-throughput phenotypic screening of pediatric cancer cell lines identifies multiple opportunities for drug repurposing. […] Cells were assayed in growth media at a density of 500-1,000 cells/well. […] After a 15 min incubation at room temperature, samples were analyzed for luminescence intensity using a ViewLux High-throughput CCD imager equipped with clear filters.
Results filed as inconclusive are left out. Calls of active or inactive are those of the source. Calls follow the shape of the dose curve; as a rule, active = well fitted cell-killing curve with a large enough effect; inconclusive = small, poorly fitted or top-dose-only effect; inactive = no such curve, though single readings can be large or run the other way.
Hello, when you answer, please use one of the following outcomes: true (1) = active, false (0) = inactive

The examples below pair each entry with its known result.
1) CC1(C)S[C@@H]2[C@H](NC(=O)[C@H](N)c3ccccc3)C(=O)N2[C@H]1C(=O)O
false (0)
2) Nc1ccc(O)c(C(=O)O)c1
false (0)

Would you kindly look at the next entry?
Recorded test call requested for "COC(=O)Nc1nc2ccc(C(=O)C3CC3)cc2[nH]1"
true (1)

FYI, the data here is from PubChem BioAssay (NCATS).
